Biological target: NT-3 growth factor receptor (Homo sapiens) (UniProt Q16288);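 note: mean TRKC inhibition from the GSK PKIS kinase inhibitor set, with assays run by Nanosyn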
Sequence (Q16288 32-839 limits assumed): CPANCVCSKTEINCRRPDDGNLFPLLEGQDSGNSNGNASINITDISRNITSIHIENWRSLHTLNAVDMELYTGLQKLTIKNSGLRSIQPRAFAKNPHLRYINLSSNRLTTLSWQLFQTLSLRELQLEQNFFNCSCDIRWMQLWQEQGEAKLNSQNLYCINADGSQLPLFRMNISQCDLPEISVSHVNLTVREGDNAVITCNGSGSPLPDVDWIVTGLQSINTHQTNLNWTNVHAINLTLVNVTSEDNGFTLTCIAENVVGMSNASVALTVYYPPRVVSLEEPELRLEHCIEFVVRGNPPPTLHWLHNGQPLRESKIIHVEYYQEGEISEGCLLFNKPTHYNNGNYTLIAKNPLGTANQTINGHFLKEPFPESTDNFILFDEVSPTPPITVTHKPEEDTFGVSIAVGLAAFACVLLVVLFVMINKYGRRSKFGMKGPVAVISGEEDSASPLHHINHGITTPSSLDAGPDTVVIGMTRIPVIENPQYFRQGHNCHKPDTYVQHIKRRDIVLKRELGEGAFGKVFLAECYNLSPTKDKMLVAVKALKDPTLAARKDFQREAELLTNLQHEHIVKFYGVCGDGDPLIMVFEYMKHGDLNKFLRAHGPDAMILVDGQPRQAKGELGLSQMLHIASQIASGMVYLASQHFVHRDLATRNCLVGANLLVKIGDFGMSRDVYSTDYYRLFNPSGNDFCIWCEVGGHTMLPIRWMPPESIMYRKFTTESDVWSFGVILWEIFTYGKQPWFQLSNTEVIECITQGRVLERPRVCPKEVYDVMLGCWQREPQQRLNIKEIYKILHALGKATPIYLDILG
Details: at 1 µM
Lab note: compare inhibition against 1%. Equal or greater, write Yes. Smaller, write No.

Ask: Does the reported inhibition for `N#Cc1c(NC(=O)c2ccc(F)cc2)sc2c1CCCC2` fall at or above the 1% mark?
Reply: Yes

Ask: Repeat for the following compound: `COC(=O)Nc1nc2ccc(Oc3ccc(NC(=O)Nc4cccc(Cl)c4)cc3)cc2[nH]1`
Reply: Yes

Ask: Repeat for the following compound: `CCN1CCC(CC(=O)Nc2n[nH]c3nnc(-c4cccc(F)c4F)cc23)CC1`
Reply: No

Ask: Repeat for the following compound: `NS(=O)(=O)c1ccc(N/N=C2\C(=O)Nc3ccc4ncccc4c32)cc1`
Reply: Yes

Ask: Repeat for the following compound: `COc1ccc(-c2cc3c(N)ncnc3o2)cc1`
Reply: No

Ask: Repeat for the following compound: `c1ccc(-c2nc3n(c2-c2ccc4c(c2)OCO4)CCC3)nc1`
Reply: Yes

---

Consider the following compounds; for each one, report its inhibition.
Target: Serine/threonine-protein kinase Chk1 (Homo sapiens);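 note: mean inhibition of CHEK1, part of the GSK PKIS profiling set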
Sequence (whole entry): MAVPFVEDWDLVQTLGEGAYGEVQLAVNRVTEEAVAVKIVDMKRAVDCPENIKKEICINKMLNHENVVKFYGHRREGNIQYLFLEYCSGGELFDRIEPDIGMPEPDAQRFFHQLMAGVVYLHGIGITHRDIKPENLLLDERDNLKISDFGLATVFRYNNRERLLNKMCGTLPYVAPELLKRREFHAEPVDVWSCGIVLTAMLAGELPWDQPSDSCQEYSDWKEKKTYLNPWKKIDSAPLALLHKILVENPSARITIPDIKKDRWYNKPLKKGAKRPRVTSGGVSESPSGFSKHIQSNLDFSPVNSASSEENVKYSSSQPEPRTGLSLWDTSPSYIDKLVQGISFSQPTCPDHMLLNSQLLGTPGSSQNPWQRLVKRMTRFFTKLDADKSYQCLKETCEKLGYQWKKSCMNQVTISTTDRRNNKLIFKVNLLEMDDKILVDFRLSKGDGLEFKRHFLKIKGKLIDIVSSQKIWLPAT
Settings: at 1 µM
Provide only the numeric value, understood in %.

Ask: // lookup inhibition for `O=S(=O)(CCNCc1ccc(-c2ccc3ncnc(Nc4ccc(OCc5cccc(F)c5)c(Cl)c4)c3c2)o1)c1ccccc1`
Reply: 10.1

Ask: Repeat for the following compound: `CC(=O)NCc1cccc(C#Cc2cncnc2Nc2ccc(OCc3cccc(F)c3)c(Cl)c2)c1`
Reply: -4.26

Ask: Repeat for the following compound: `CNC(=O)c1cncc(/C=C/c2ccccc2Cl)c1`
Reply: 3.35

Ask: Repeat for the following compound: `COc1ccc(-c2oc3ncnc(N)c3c2-c2ccc(NC(=O)Nc3cc(C(F)(F)F)ccc3F)cc2)cc1`
Reply: 6.88

Ask: Repeat for the following compound: `[O-][S+]1CCN(Cc2ccc(-c3ccc4ncnc(Nc5ccc(OCc6cccc(F)c6)c(Cl)c5)c4c3)o2)CC1`
Reply: 10.6

Ask: Repeat for the following compound: `COc1cc(/C=N/Nc2ncnc3[nH]ncc23)ccc1O`
Reply: 66.1

Ask: Repeat for the following compound: `Fc1ccc(-c2nn3ccccc3c2-c2ccncc2)cc1`
Reply: -0.04

Ask: Repeat for the following compound: `COc1ccc2c(-c3ccnc(Nc4cccc(OC(F)(F)F)c4)n3)cnn2n1`
Reply: 5.26

Ask: Repeat for the following compound: `c1ccc(-c2nc3n(c2-c2ccc4c(c2)OCO4)CCC3)nc1`
Reply: 3.51

Ask: Repeat for the following compound: `CS(=O)(=O)CCNCc1coc(-c2ccc3ncnc(Nc4ccc(OCc5ccccc5)cc4)c3c2)c1`
Reply: 3.43

Ask: Repeat for the following compound: CC1=C(C(=O)Nc2cc(Cl)c3[nH]ncc3c2)C(c2ccc(C(F)(F)F)cc2)CC(=O)N1 (configuration not stated)
Reply: 11.4

Ask: Repeat for the following compound: `Cc1ccc2c(-c3ccnc(Nc4ccccc4)n3)c(-c3ccc(F)cc3)nn2n1`
Reply: 4.19

Ask: Repeat for the following compound: `Nc1nc(-c2ccc(F)cc2)c(-c2ccc3ncccc3n2)s1`
Reply: 5.94

Ask: Repeat for the following compound: `CNC(=O)c1cccc(C#Cc2cncnc2Nc2ccc(OCc3cccc(F)c3)c(Cl)c2)c1`
Reply: -0.79

Ask: Repeat for the following compound: `CC(C)(CO)CNC(=O)c1ccc2c(c1)/C(=N/Nc1ccc(S(N)(=O)=O)cc1)C(=O)N2`
Reply: -3.69

Ask: Repeat for the following compound: `COc1cc(Nc2nccc(Nc3ccc4c(C)n[nH]c4c3)n2)cc(OC)c1OC`
Reply: 3.35

Ask: Repeat for the following compound: `NC(=O)c1sc(-n2cnc3ccc(C(F)(F)F)cc32)cc1OCc1ccccc1Br`
Reply: -0.7
